studyTarget: T1, human IFP35 protein (human, UniProt P80217 1-286, limits assumed)
T1 construct: also called interferon-induced protein 35; IFI35
T1 chain: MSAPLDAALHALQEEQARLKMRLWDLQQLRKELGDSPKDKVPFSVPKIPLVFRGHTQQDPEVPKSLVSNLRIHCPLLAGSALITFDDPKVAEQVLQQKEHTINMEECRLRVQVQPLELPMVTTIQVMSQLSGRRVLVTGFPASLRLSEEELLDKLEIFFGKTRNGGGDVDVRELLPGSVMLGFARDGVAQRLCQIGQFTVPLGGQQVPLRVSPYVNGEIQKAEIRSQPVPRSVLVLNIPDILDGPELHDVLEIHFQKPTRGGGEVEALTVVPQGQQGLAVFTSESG
experimentNotes: ELISA (OD450) on human IFP35 protein
readoutLabel: EC50 (read off the curve)

# binder, readoutLabel, reportedValue
data = [
    ("AE001-H1+L1 (antibody, V domains shown, also called AE001H1 + AE001L1; humanized antibody) VH: QVQLVESGAEVKKPGASVKISCKASGYTFTNYGMNWVKQAPGQGLKWMGWINTYTGEPTFAQDFQGRFTFTLDTSASTAYLQISSLRNEDTAVYFCARYGYSWAMDYWGQGTSVTVSS VL: DIQMTQSPSSMSASVGDRVTMTCQASSSVSYMHWYQQKPGKSPKRWIYDTSKLASGVPSRFSGSGSGTDYTLTISSMQPEDIATYYCQQWSSNPPITFGAGTKLEIK", "EC50 (read off the curve)", "~0.05 µg/mL"),
    ("AE001-H2+L2 (antibody, V domains shown, Humanized form of 35NIDmAb with the same CDRs; The same doubt about the 'constant region' label applies as for AE001-H1+L1; also called AE001H2 + AE001L2; humanized antibody) VH: QVQLVQSGAEVKKPGASVKISCKASGYTFTNYGMNWVRQAPGQGLEWMGWINTYTGEPTFAQKFQGRFTFTLDTSTSTAYLEISSLRNEDTAVYFCARYGYSWAMDYWGQGTSVTVSS VL: DIQMTQSPSSLSASVGDRVTMTCQASSSVSYMHWYQQKPGKAPKRWIYDTSKLASGVPSRFSGSGSGTDYTLTISSMQPEDIATYYCQQWSSNPPITFGAGTKLEIK", "EC50 (read off the curve)", "~0.08 µg/mL"),
]

Consider now this further binder.
// sample AE001-H3+L3 (antibody, V domains shown, The same doubt about the 'constant region' label applies as for AE001-H1+L1; also called AE001H3 + AE001L3; humanized antibody) VH: QVQLVQSGAEVKKPGASVKVSCKASGYTFTNYGMNWVRQAPGQGLEWMGWINTYTGEPTVAQKFQGRFTFTLDTSTSTAYLELSSLRNEDTAVYFCARYGYSWAMDYWGQGTSVTVSS VL: DIQMTQSPSSLSASVGDRVTITCQASSSVSYMHWYQQKPGKAPKRLIYDTSKLASGVPSRFSGSGSGTDYTLTISSLQPEDIATYYCQQWSSNPPITFGAGTKLEIK , its EC50 (read off the curve) was ~0.2 µg/mL
